Tested on: antibodies in sera from SARS patients (sera 1a, 1b, 2, 6, 37, 62, London, SARS-yellow, SARS-green)
Assay type: binding, human
Please respond with reported Binding of serum 1b to linear peptides of protein X4 of SARS-CoV Urbani for every item in the list.
Format: numeric value only, no unit, no commentary.

Any idea what its Binding of serum 1b to linear peptides of protein X4 of SARS-CoV Urbani is? The sequence is `AALVFLILCFTIKRK`
0.8

# query: Binding of serum 1b to linear peptides of protein X4 of SARS-CoV Urbani of entry `LFLIVAALVFLILCF`
0.5

Could you share which Binding of serum 1b to linear peptides of protein X4 of SARS-CoV Urbani value was measured for `STHFAFACADGTRHT` ?
0.6

Item under review: `SCELYHYQECVRGTT` . Reported Binding of serum 1b to linear peptides of protein X4 of SARS-CoV Urbani?
0.6

// lookup Binding of serum 1b to linear peptides of protein X4 of SARS-CoV Urbani for `CADGTRHTYQLRARS`
0.5

# lookup: Binding of serum 1b to linear peptides of protein X4 of SARS-CoV Urbani of `MKIILFLTLIVFTSC`
0.5

Returns the measured Binding of serum 1b to linear peptides of protein X4 of SARS-CoV Urbani for the input sequence. Input: `IRQEEVQQELYSPLF`
0.6

// query Binding of serum 1b to linear peptides of protein X4 of SARS-CoV Urbani value for entry `FACADGTRHTYQLRA`
0.4

Which Binding of serum 1b to linear peptides of protein X4 of SARS-CoV Urbani is reported for this sequence? `HTYQLRARSVSPKLF`
0.8

# get_value(readout='Binding of serum 1b to linear peptides of protein X4 of SARS-CoV Urbani', item= `LVFLILCFTIKRKTE` )
0.6

Please give the measured Binding of serum 1b to linear peptides of protein X4 of SARS-CoV Urbani for this sequence: `LLKEPCPSGTYEGNS`
0.6

Look at this sequence and give its reported Binding of serum 1b to linear peptides of protein X4 of SARS-CoV Urbani. `IVFTSCELYHYQECV`
0.9
